Test system: Curvularia lunata
Test: Antifungal activity against Curvularia lunata MTCC 581 at 80 uM/ml after 48 hrs by paper disc diffusion method
Format: functional
Details: MTCC 581, 48 h, read-out: IZ

COMPOUND	zone of inhibition at 80 µM (mm)
COc1ccc(C2NC(=O)NC(/C=C/c3ccc(O)c(OC)c3)=C2C(=O)/C=C/c2ccc(O)c(OC)c2)cc1 (centres undefined)	16
COc1cc(/C=C/C(=O)C2=C(/C=C/c3ccc(O)c(OC)c3)NC(=S)NC2c2ccccc2)ccc1O (centres undefined)	23
COc1cc(/C=C/C(=O)C2=C(/C=C/c3ccc(O)c(OC)c3)NC(=O)NC2c2ccc(C)cc2)ccc1O (centres undefined)	18
COc1cc(/C=C/C(=O)C2=C(/C=C/c3ccc(O)c(OC)c3)NC(=O)NC2c2ccccc2O)ccc1O (centres undefined)	21

* * *

System: HepG2
Entries and their IC50
MEASURED_ENDPOINT: IC50 (uM/ml)

COMPOUND	MEASURED_ENDPOINT	MEASUREMENT
COc1ccc(C2NC(=O)NC(/C=C/c3ccc(O)c(OC)c3)=C2C(=O)/C=C/c2ccc(O)c(OC)c2)cc1 (centres undefined)	IC50	50
COc1cc(/C=C/C(=O)C2=C(/C=C/c3ccc(O)c(OC)c3)NC(=S)NC2c2ccc(O)cc2)ccc1O (centres undefined)	IC50	100
COc1cc(/C=C/C(=O)C2=C(/C=C/c3ccc(O)c(OC)c3)NC(=O)NC2c2ccc(Cl)cc2)ccc1O (centres undefined)	IC50	100
COc1cccc2c1C(=O)c1c(O)c3c(c(O)c1C2=O)C[C@@](O)(C(=O)CO)C[C@@H]3O[C@H]1C[C@H](N)[C@H](O)[C@H](C)O1	IC50	2.5

* * *

System: Aspergillus niger
Test: Antifungal activity against Aspergillus niger MTCC 1108 at 160 uM/ml after 48 hrs by paper disc diffusion method
Format: functional
The source made the active and inactive calls. The calls are words filed in the database; no cut-off is given here.

MOLECULE	inhibition zone (IZ)
COc1cc(/C=C/C(=O)C2=C(/C=C/c3ccc(O)c(OC)c3)NC(=O)NC2c2ccc([N+](=O)[O-])cc2)ccc1O (centres undefined)	inactive
COc1cc(/C=C/C(=O)CC(=O)/C=C/c2ccc(O)c(OC)c2)ccc1O	inactive
OC(Cn1cncn1)(Cn1cncn1)c1ccc(F)cc1F	inactive
COc1cc(/C=C/C(=O)C2=C(/C=C/c3ccc(O)c(OC)c3)NC(=O)NC2c2ccc(O)c(OC)c2)ccc1O (centres undefined)	inactive

* * *

Test system: Staphylococcus aureus
Assay: Antibacterial activity against Staphylococcus aureus ATCC 11632 at 20 uM/ml after 24 hrs by kirby-bauer method
Assay type: functional
Conditions: ATCC 11632, 24 h, read-out: IZ

MOLECULE	zone of inhibition at 20 µM [mm]
COc1cc(/C=C/C(=O)C2=C(/C=C/c3ccc(O)c(OC)c3)NC(=O)NC2c2ccccc2)ccc1O (centres undefined)	14
COc1cc(/C=C/C(=O)C2=C(/C=C/c3ccc(O)c(OC)c3)NC(=O)NC2c2ccc(O)cc2)ccc1O (centres undefined)	16
COc1cc(/C=C/C(=O)C2=C(/C=C/c3ccc(O)c(OC)c3)NC(=S)NC2c2ccc(Cl)cc2)ccc1O (centres undefined)	9
CC1(C)S[C@@H]2[C@H](NC(=O)[C@H](N)c3ccccc3)C(=O)N2[C@H]1C(=O)O [AMPICILLIN]	28

* * *

System: Aspergillus niger
Experiment: Antifungal activity against Aspergillus niger MTCC 1108 at 80 uM/ml after 48 hrs by paper disc diffusion method
Type: functional
Details: MTCC 1108, 48 h, read-out: IZ
MEASURED_ENDPOINT: zone of inhibition at 80 µM (mm)

MOLECULE	MEASURED_ENDPOINT	MEASUREMENT
COc1cc(/C=C/C(=O)C2=C(/C=C/c3ccc(O)c(OC)c3)NC(=O)NC2c2ccc(C)cc2)ccc1O (centres undefined)	zone of inhibition at 80 µM	9
COc1cc(/C=C/C(=O)C2=C(/C=C/c3ccc(O)c(OC)c3)NC(=S)NC2c2ccc(Cl)cc2)ccc1O (centres undefined)	zone of inhibition at 80 µM	9
COc1cc(/C=C/C(=O)C2=C(/C=C/c3ccc(O)c(OC)c3)NC(=S)NC2c2ccccc2)ccc1O (centres undefined)	zone of inhibition at 80 µM	14
COc1ccc(C2NC(=O)NC(/C=C/c3ccc(O)c(OC)c3)=C2C(=O)/C=C/c2ccc(O)c(OC)c2)cc1 (centres undefined)	zone of inhibition at 80 µM	9

* * *

Test system: Aspergillus flavus
Test: Antifungal activity against Aspergillus flavus MTCC 1021 at 80 uM/ml after 48 hrs by paper disc diffusion method
Type: functional
Active and inactive are the calls of the source. The calls are words filed in the database; no cut-off is given here.
MEASURED_ENDPOINT: inhibition zone (IZ)

COMPOUND	MEASURED_ENDPOINT	MEASUREMENT
COc1cc(/C=C/C(=O)C2=C(/C=C/c3ccc(O)c(OC)c3)NC(=S)NC2c2ccc([N+](=O)[O-])cc2)ccc1O (stereo unspecified)	inhibition zone (IZ)	inactive
COc1cc(/C=C/C(=O)C2=C(/C=C/c3ccc(O)c(OC)c3)NC(=S)NC2c2ccccc2)ccc1O (stereo unspecified)	inhibition zone (IZ)	inactive
COc1cc(/C=C/C(=O)C2=C(/C=C/c3ccc(O)c(OC)c3)NC(=S)NC2c2ccc(O)c(OC)c2)ccc1O (stereo unspecified)	inhibition zone (IZ)	inactive
COc1ccc(C2NC(=S)NC(/C=C/c3ccc(O)c(OC)c3)=C2C(=O)/C=C/c2ccc(O)c(OC)c2)cc1 (stereo unspecified)	inhibition zone (IZ)	inactive
COc1cc(/C=C/C(=O)C2=C(/C=C/c3ccc(O)c(OC)c3)NC(=S)NC2c2ccc(Cl)cc2)ccc1O (stereo unspecified)	inhibition zone (IZ)	inactive
COc1cc(/C=C/C(=O)C2=C(/C=C/c3ccc(O)c(OC)c3)NC(=O)NC2c2ccccc2O)ccc1O (stereo unspecified)	inhibition zone (IZ)	inactive

* * *

Tested on: Aspergillus flavus
Assay: Antifungal activity against Aspergillus flavus MTCC 1021 at 160 uM/ml after 48 hrs by paper disc diffusion method
Assay type: functional
Calls of active or inactive are those of the source. The calls are words filed in the database; no cut-off is given here.

COMPOUND	inhibition zone (IZ)
COc1cc(/C=C/C(=O)C2=C(/C=C/c3ccc(O)c(OC)c3)NC(=O)NC2c2ccc(O)c(OC)c2)ccc1O (stereo not drawn)	inactive
COc1cc(/C=C/C(=O)C2=C(/C=C/c3ccc(O)c(OC)c3)NC(=O)NC2c2ccc([N+](=O)[O-])cc2)ccc1O (stereo not drawn)	inactive
COc1cc(/C=C/C(=O)C2=C(/C=C/c3ccc(O)c(OC)c3)NC(=O)NC2c2ccc(C)cc2)ccc1O (stereo not drawn)	inactive

* * *

System: Trichoderma viride
Assay: Antifungal activity against Trichoderma viride MTCC 1107 at 80 uM/ml after 48 hrs by paper disc diffusion method
Type: functional
Conditions: MTCC 1107, 48 h, read-out: IZ
Form field: zone of inhibition at 80 µM (one value per entry).

COMPOUND	zone of inhibition at 80 µM (mm)
COc1cc(/C=C/C(=O)C2=C(/C=C/c3ccc(O)c(OC)c3)NC(=O)NC2c2ccccc2O)ccc1O (configuration not stated)	9
COc1cc(/C=C/C(=O)C2=C(/C=C/c3ccc(O)c(OC)c3)NC(=O)NC2c2ccc(O)cc2)ccc1O (configuration not stated)	14
COc1cc(/C=C/C(=O)C2=C(/C=C/c3ccc(O)c(OC)c3)NC(=S)NC2c2ccc([N+](=O)[O-])cc2)ccc1O (configuration not stated)	21
COc1cc(/C=C/C(=O)C2=C(/C=C/c3ccc(O)c(OC)c3)NC(=S)NC2c2ccccc2)ccc1O (configuration not stated)	21
COc1ccc(C2NC(=O)NC(/C=C/c3ccc(O)c(OC)c3)=C2C(=O)/C=C/c2ccc(O)c(OC)c2)cc1 (configuration not stated)	17
COc1cc(/C=C/C(=O)C2=C(/C=C/c3ccc(O)c(OC)c3)NC(=O)NC2c2ccc(C)cc2)ccc1O (configuration not stated)	16
OC(Cn1cncn1)(Cn1cncn1)c1ccc(F)cc1F	29

* * *

Test system: Escherichia coli
Assay: Antibacterial activity against Escherichia coli ATCC 35218 at 80 uM/ml after 24 hrs by kirby-bauer method
Type: functional
Details: ATCC 35218, 24 h, read-out: IZ

COMPOUND	zone of inhibition at 80 µM [mm]
COc1cc(/C=C/C(=O)C2=C(/C=C/c3ccc(O)c(OC)c3)NC(=O)NC2c2ccc(Cl)cc2)ccc1O (centres undefined)	16
COc1cc(/C=C/C(=O)C2=C(/C=C/c3ccc(O)c(OC)c3)NC(=S)NC2c2ccc(O)cc2)ccc1O (centres undefined)	18
COc1cc(/C=C/C(=O)C2=C(/C=C/c3ccc(O)c(OC)c3)NC(=O)NC2c2ccc(C)cc2)ccc1O (centres undefined)	9
COc1ccc(C2NC(=O)NC(/C=C/c3ccc(O)c(OC)c3)=C2C(=O)/C=C/c2ccc(O)c(OC)c2)cc1 (centres undefined)	9

* * *

Record set of IC50 for target or system HepG2.

COMPOUND	TARGET_DESC	IC50
COc1cc(/C=C/C(=O)CC(=O)/C=C/c2ccc(O)c(OC)c2)ccc1O [CURCUMIN]	HepG2	50 uM/ml
COc1cc(/C=C/C(=O)C2=C(/C=C/c3ccc(O)c(OC)c3)NC(=S)NC2c2ccccc2)ccc1O (stereo not drawn)	HepG2	50 uM/ml
COc1cc(/C=C/C(=O)C2=C(/C=C/c3ccc(O)c(OC)c3)NC(=S)NC2c2ccc(O)c(OC)c2)ccc1O (stereo not drawn)	HepG2	50 uM/ml
